# System: DU-145 prostate
# measurement_protocol: NCI-60 one-dose screen, 48 h (100 = growth as untreated, 0 = no growth, -100 = all killed)
# particulars: 10 µM unless noted
The panel holds about 83,000 compounds, 20% with a hit somewhere; the sample as a whole holds those more often.
Measured growth of individual entries
Return type: number; implicit unit %.

Sample records with growth:
compound	quantitative_result
COC(=O)Nc1nc2ccc(C(=O)c3cccc(I)c3)cc2[nH]1	5.95
CNC(=O)Nc1ccc(-c2nc(N3CCOCC3)nc3c2cnn3C2CCOCC2)cc1	9.63
CN1CCN(c2ccc(NC3=C(Cl)C(=O)c4ncccc4C3=O)cc2C#N)CC1	86.9
CCCCN(CCCC)CCc1c(C)cc(C)c(CCN(CCCC)CCCC)c1O	52.9
O=C(O)c1ccc[n+](CC(=O)N2CCN(c3cc4c(cc3F)c(=O)c(C(=O)O)cn4C3CC3)CC2)c1	96.1

Record "CN1CCN(CCCOc2ccc3ncnc(Nc4ccc(Oc5cccc(C(F)(F)F)c5)c(Cl)c4)c3c2)CC1" . Reported growth: -8.56

Record CC(=O)OCC(=O)C1(O)C(C)CC2C3C=C(C)C4=Cc5c(cnn5-c5ccccc5)CC4(C)C3C(O)CC21C (centres undefined) . Reported growth: 27.1

Record "CC(C)[N+](C)(CCOC(COc1ccccc1)COc1ccccc1)C(C)C" . Reported growth: 106

Record c1ccc(C2CC(c3cccc(Nc4ccncc4)c3)=NN2c2ccccc2)cc1 (centres undefined) . Reported growth: 67.7

Record "COc1cc(-c2nc3occn3c2-c2ccnc(NCCNS(=O)(=O)c3ccc(Cl)cc3)n2)ccc1F" . Reported growth: 89.8

Record CC(=O)N1c2ccccc2NC2=C(C(=O)N(Cc3ccccc3)C2(C)C)C1c1ccco1 (centres undefined) . Reported growth: 7.82

Record COC(=O)C1=C(C(=O)ONCCN(C)C)C2C=CC1(C(Cc1ccccc1)Nc1ccc(F)cc1)O2 (centres undefined) . Reported growth: 95.6

Record "Fc1ccc2nc3c(cc2c1)CSc1nnc(-c2ccc[nH]c2=S)n1N3" . Reported growth: 114

Record "Cc1ccc(O)c(C(=O)O)c1" . Reported growth: 114

Record "O=C(Nc1nc2ccc(C(=O)N3CCN(c4ccc(Cl)c(Cl)c4)CC3)cc2s1)c1ccc(NCCc2ccccc2)c([N+](=O)[O-])c1" . Reported growth: 101

Record Clc1ccc(C2CC(c3cccc(Nc4ccncc4)c3)=NN2c2ccccc2)cc1 (centres undefined) . Reported growth: 56.7

Record "Cc1cc2nc(-c3ccccc3)c(-c3ccccc3)nc2cc1C" . Reported growth: 112

Record "CC1(C)CN(Cc2ccccc2)CCN1Cc1ccccc1" . Reported growth: 114

Record "C=C(C)[C@@H]1CC[C@]2(C(=O)NCCCN(CCC#N)CCC#N)CC[C@]3(C)[C@H](CC[C@@H]4[C@@]5(C)CCC(=O)C(C)(C)[C@@H]5CC[C@]43C)[C@@H]12" . Reported growth: 105

====

Measured growth of individual entries
# System: SW-620 colon
# measurement_protocol: NCI-60 one-dose screen, 48 h (100 = growth as untreated, 0 = no growth, -100 = all killed)
# particulars: 10 µM unless noted
About 83,000 compounds went through this panel and 20% of them were active in at least one assay; those are over-represented in the sample as a whole.
Return type: number; implicit unit %.

Sample records with growth:
molecule	growth (%)
FC(F)(F)Oc1cccc(-c2cc(NCCCCCCNc3cc(-c4cccc(OC(F)(F)F)c4)nc4ccc(N5CCCC5)cc34)c3cc(N4CCCC4)ccc3n2)c1	-78.8
C[C@@H]1CN(Cc2ccc(/C=C/c3n[nH]c4ccc5nc(-c6cn[nH]c6C(F)(F)F)c6c(c5c34)CCCC6)cc2)C[C@H](C)O1	-16.6
COc1ccc(Cn2nc(-c3ccccc3)c3c2CCc2cnoc2-3)cc1	83.2

Record "O=C(Nc1cccc(Cl)c1)c1cc(Cl)ccc1O" . Reported growth: 6.44

Record "COc1cc(Nc2cc(O)c3c(=O)cc(-c4ccccc4)oc3c2)cc(OC)c1" . Reported growth: 24.9

Record "COc1ccc(Cl)cc1NC(=O)c1c(NC(=O)C(F)(F)C(F)(F)F)sc2c1CCCCC2" . Reported growth: 12.8

Record "Fc1ccccc1CSc1ncnc2nc[nH]c12" . Reported growth: 96

Record "COc1ccccc1Nc1cc(O)c2c(=O)cc(-c3ccccc3)oc2c1" . Reported growth: 20.8

Record CC(O)/C=C/C=C/C(O)CC/C=C/C(=O)NCC(C)(C)O (centres undefined) . Reported growth: 118

====

# System: SR leukemia
# measurement_protocol: NCI-60 one-dose screen, 48 h (100 = growth as untreated, 0 = no growth, -100 = all killed)
# particulars: 10 µM unless noted
About 83,000 compounds went through this panel and 20% of them were active in at least one assay; those are over-represented in the sample as a whole.
// label = label 1 if growth is not less than 80%, otherwise label 0

Solved cases (5 shown):
compound	classification
COc1cc(-c2cc(=O)oc3cc(O)ccc23)c(OC)c2c1OCO2	label 1
CN(C)C(=O)c1cc2cnc(Nc3ccc(-c4csc5c(=O)cc(N6CCOCC6)oc45)cc3)nc2n1C1CCCC1	label 0
C=C1C(=O)O[C@H]2[C@H]1CC/C(COC(=O)/C=C/c1c[nH]c3ccccc13)=C\CC[C@@]1(C)O[C@@H]21	label 0
COc1ccc(Cn2nc(-c3cc(OC)c(OC)c(OC)c3)c3c2CCc2cnoc2-3)cc1OC	label 0
FC(F)(F)c1cccc(Oc2ccc(Nc3ncnc4ccc(OCCCN5CCOCC5)cc34)cc2Cl)c1	label 0

Given CC(C)NC(=O)N1C(=O)CCC1NNC(=O)c1ccc([N+](=O)[O-])cc1 (centres undefined) , state whether its growth is at least 80%.
label 1

Given "CC(=O)c1cc2c(N)c(C(=O)Nc3cncc4ccccc34)sc2nc1C" , state whether its growth is at least 80%.
label 0

Given "COc1ccc(Nn2c(SCC(=O)Nc3nc(-c4ccc(Cl)cc4)cs3)nc(C)c2C)cc1" , state whether its growth is at least 80%.
label 0

Given COc1cc(NCC(C)(O)CN(CC(C)C)CC(C)C)c2nc(C)ccc2c1 (centres undefined) , state whether its growth is at least 80%.
label 1

====

# System: NCI-H522 lung
# measurement_protocol: NCI-60 one-dose screen, 48 h (100 = growth as untreated, 0 = no growth, -100 = all killed)
# particulars: 10 µM unless noted
About 83,000 compounds went through this panel and 20% of them were active in at least one assay; those are over-represented in the sample as a whole.
Measured growth of individual entries
Return type: number; implicit unit %.

Sample records with growth:
molecule	growth [%]
COc1ccccc1/C=C1\Oc2cc(OCCCN3CCCC3)ccc2C1=O	104
Cc1cc(C(=O)Nc2ncnc3nc[nH]c23)no1	94.3

Record "Nc1c(C(=O)Nc2cccc3ccncc23)sc2nc3c(cc12)C(=O)CCC3" . Reported growth: -15.7

Record "CCOC(=O)N1CCN(CCCCl)CC1" . Reported growth: 95.4

Record "O=C(NCCN1CCOCC1)OCc1nc2nc(Cl)nc(N3CCOCC3)c2[nH]1" . Reported growth: -29.8

Record "CCCCCN1C=C/C(=C\C(=O)N(C)c2ccc(Br)cc2)c2ccccc21" . Reported growth: 82.1

Record "Nc1nnc(C(=O)c2cnc3n(c2=O)CCCCC3)s1" . Reported growth: 98

Record "CC1(C)CCCN1CCCN1c2ccccc2Sc2ccc(Cl)cc21" . Reported growth: 76.6

Record "COc1ccc(C(=O)/C=C/c2ccc(OCc3ccccc3)c(OC)c2)cc1OC" . Reported growth: 28.9

====

# Tested on: CAKI-1 renal
# measurement_protocol: NCI-60 one-dose screen, 48 h
# particulars: 10 µM unless noted
The panel holds about 83,000 compounds, 20% with a hit somewhere; the sample as a whole holds those more often. The source made the active and inactive calls. How the source made its calls: active means growth percent below 10; inactive means the rest.
Respond only with the outcome that fits, drawn from yes = active, no = inactive

Solved cases (4 shown):
smiles	assayed_system	classification
COC(=O)Nc1ccc(NC(=O)OC)cc1	CAKI-1 renal	no
c1ccc(Cn2nc3c(c2-c2ccccc2)-c2oncc2CC3)cc1	CAKI-1 renal	no
CC(=O)c1c(C)[nH]c(-c2nc3ccc(N4CCN(C)CC4)cc3[nH]2)c1-c1ccccc1	CAKI-1 renal	yes
O=C(Nc1ccccc1)Oc1ccccc1-c1ccccc1	CAKI-1 renal	no

What call does the record list for "Cc1ccc(C(=O)Nc2ccccc2C(=O)N/N=C(\c2ccccc2)c2ccccn2)cc1" ?
no

What call does the record list for "CS(=O)(=O)Nc1cc(-c2ccc3ncnc(Nc4ccc5[nH]ncc5c4)c3c2)cnc1Cl" ?
no

====

# Tested on: HCT-15 colon
# measurement_protocol: NCI-60 one-dose screen, 48 h
# particulars: 10 µM unless noted
This is part of a sample that, as a whole, favours compounds with a hit. Of some 83,000 tested, about 20% had one in any assay. Activity calls are given as the source filed them. How the source made its calls: active means growth percent below 10; inactive means the rest.
Respond only with the outcome that fits, drawn from active, inactive

compound	classification
Cc1ccc(O)c(C(=O)O)c1	inactive
C#CC(=O)Nc1cccc(Nc2nc3c(c(NCc4ccccc4)n2)CCCC3)c1	active
COc1ccc(-c2nn(Cc3ccccc3)c3c2-c2oncc2CC3)cc1OC	inactive
Cc1cc2nc(-c3ccccc3)c(-c3ccccc3)nc2cc1C	inactive
COc1ccccc1/C=C1\Oc2cc(OCCCN3CCCC3)ccc2C1=O	inactive
Nc1ncc(C#Cc2cncc(NC(=O)c3cccc(C(F)(F)F)c3)c2)c2cccnc12	inactive
Nc1cc(N)c2cccnc2c1O	inactive
C=C1C(=O)O[C@H]2[C@H]1CC/C(COC(=O)CCCCCC(=O)OC/C1=C/CC[C@@]3(C)O[C@H]3[C@H]3OC(=O)C(=C)[C@@H]3CC1)=C\CC[C@@]1(C)O[C@@H]21	active
CS(=O)(=O)OCCN(CCOS(C)(=O)=O)c1ccc(/C=N/Nc2ccc([N+](=O)[O-])cc2[N+](=O)[O-])cc1	inactive
c1ccc(C2CC(c3cccc(Nc4ccncc4)c3)=NN2c2ccccc2)cc1 (stereo not given)	active

Could you now look at the following compound, please?
What call does the record list for "CCCCCCCCCCCCCCCC(=O)OC[C@@]1(O)C[C@@]23CC[C@@H]4C(C)(C)CCC[C@@]4(C)[C@@H]2CC[C@H]1C3" ?
inactive

Entry source: PubChem BioAssay (NCI)
